Where these numbers come from: ChEMBL document CHEMBL4251757

Method Description: Plasma concentration in cynomolgus monkey at 30 mg/kg administered as oral gavage measured after 1 hr by RP-HPLC analysis
Type: ADME, organism-based, Macaca fascicularis
Assay Endpoint: concentration at 1 h (µM)
Supply the numeric figure in µM, leaving out any unit text.

Which concentration at 1 h value is on record for CCCCCCc1c(C(=O)C[C@H](C)CC(=O)O)c2cc(Cl)ccc2n1C ? 36

---

Method Description: Half life in cynomolgus monkey plasma at 30 mg/kg administered via oral gavage by RP-HPLC analysis
Format: ADME, organism-based, Macaca fascicularis
Assay Endpoint: half-life (h)

Some solved entries appear below for comparison.
Compound: CCCCCCc1cc2ccc(Cl)cc2n1C(=O)CC(C)CC(=O)O (racemic)
Recorded Number: 1.2
--
Compound: CC(CC(=O)O)CC(=O)n1c(CCCCCc2ccccc2)cc2ccc(Cl)cc21 (racemic)
Recorded Number: 3

[A] CCCCCCc1c(C(=O)C[C@H](C)CC(=O)O)c2cc(Cl)ccc2n1C
[B] C[C@H](CC(=O)O)CC(=O)c1c(CCCCCCc2ccccc2)n(C)c2ccc(Cl)cc12
[C] CC(CC(=O)O)CC(=O)c1c(CCCCCCc2ccccc2)n(C)c2ccc(Cl)cc12 (racemic)
[D] CCCCCCc1c(C(=O)CC(C)CC(=O)O)c2cc(Cl)ccc2n1C (racemic)
Put the items in order so that reported half-life rises from first to last. Provide your answer as the labels ordered per the instruction. D, A, B, C
